Test: Stability in acetate buffer pH 5.0 at room temperature via HPLC (UV)
Type: physicochemical
Conditions: pH 5, acetate buffer pH 5.0, rt, HPLC (UV), read-out: Half-life (t½) pH 5.0 rt (converted)
Would you kindly list half-life at 1 mg/mL for each of these compounds?

Can you share its half-life at 1 mg/mL? I mean this compound: CNCCN(C(=O)O/N=C(\C)[C@H]1CC[C@H]2[C@@H]3CCC4=CC(=O)CC[C@]4(C)[C@H]3CC[C@]12C)C1CCC1.O=C(O)C(F)(F)F [20d]
> 168 h

Can you share its half-life at 1 mg/mL? I mean this compound: C/C(=N\OC(=O)N(C)C[C@@H]1C[C@H](N(C)C)CN1)[C@H]1CC[C@H]2[C@@H]3CCC4=CC(=O)CC[C@]4(C)[C@H]3CC[C@]12C [20u]
72 h

Can you share its half-life at 1 mg/mL? I mean this compound: CNCCN(C(=O)O/N=C(\C)[C@H]1CC[C@H]2[C@@H]3CCC4=CC(=O)CC[C@]4(C)[C@H]3CC[C@]12C)C1CCCC1.O=C(O)C(F)(F)F [20e]
> 168 h

Can you share its half-life at 1 mg/mL? I mean this compound: C/C(=N\OC(=O)N(C)C[C@@H]1CC2(CC2)CN1)[C@H]1CC[C@H]2[C@@H]3CCC4=CC(=O)CC[C@]4(C)[C@H]3CC[C@]12C [20q]
> 168 h

Can you share its half-life at 1 mg/mL? I mean this compound: CNCCN(C(=O)O/N=C(\C)[C@H]1CC[C@H]2[C@@H]3CCC4=CC(=O)CC[C@]4(C)[C@H]3CC[C@]12C)C(C)C.O=C(O)C(F)(F)F [20c]
> 168 h

Can you share its half-life at 1 mg/mL? I mean this compound: C/C(=N\OC(=O)N(C)C[C@@H]1CCCN1)[C@H]1CC[C@H]2[C@@H]3CCC4=CC(=O)CC[C@]4(C)[C@H]3CC[C@]12C.O=C(O)C(F)(F)F [20l]
175 h

Can you share its half-life at 1 mg/mL? I mean this compound: CNC1(CN(C)C(=O)O/N=C(\C)[C@H]2CC[C@H]3[C@@H]4CCC5=CC(=O)CC[C@]5(C)[C@H]4CC[C@]23C)CCC1 [20t]
> 168 h

Can you share its half-life at 1 mg/mL? I mean this compound: C/C(=N\OC(=O)N(C)C[C@@H]1CCN1)[C@H]1CC[C@H]2[C@@H]3CCC4=CC(=O)CC[C@]4(C)[C@H]3CC[C@]12C [20o]
> 168 h

Can you share its half-life at 1 mg/mL? I mean this compound: CNCCN(CCN1CCCC1)C(=O)O/N=C(\C)[C@H]1CC[C@H]2[C@@H]3CCC4=CC(=O)CC[C@]4(C)[C@H]3CC[C@]12C.O=C(O)C(F)(F)F [20h]
105 h

Can you share its half-life at 1 mg/mL? I mean this compound: CNCCN(CCN1CCOCC1)C(=O)O/N=C(\C)[C@H]1CC[C@H]2[C@@H]3CCC4=CC(=O)CC[C@]4(C)[C@H]3CC[C@]12C.O=C(O)C(F)(F)F [20j]
99.4 h

Can you share its half-life at 1 mg/mL? I mean this compound: CNCCN(C(=O)O/N=C(\C)[C@H]1CC[C@H]2[C@@H]3CCC4=CC(=O)CC[C@]4(C)[C@H]3CC[C@]12C)C1CC1.O=C(O)C(F)(F)F [20b]
> 168 h

Can you share its half-life at 1 mg/mL? I mean this compound: CNCCN(C)C(=O)O/N=C(\C)[C@H]1CC[C@H]2[C@@H]3CCC4=CC(=O)CC[C@]4(C)[C@H]3CC[C@]12C [20a]
> 168 h

Can you share its half-life at 1 mg/mL? I mean this compound: CNCCN(CCN(C)C)C(=O)O/N=C(\C)[C@H]1CC[C@H]2[C@@H]3CCC4=CC(=O)CC[C@]4(C)[C@H]3CC[C@]12C [20g]
75.8 h
